Reported inhibition values for a set of compounds
- experimental.system: Nuclear receptor coactivator 1 (Homo sapiens)
- test.details: SRC1 coactivator transcriptional activity inhibitors, confirmation, cell-based, luminescence, quadruplicate (AID 588820);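 further: 0% = DMSO wells and 100% = gossypol 36 µM treated wells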
- particulars: HEK293 GAL4-SRC1 luciferase reporter, at 3.6 µM, active compounds read high
Express your answer in %, writing the number without its unit.

Some solved entries appear below for comparison.
compound: O=c1cccc2c1c1cc[nH]c3ccc(=O)n2c31
number: 54.3
//
compound: CCCCCCCCCCn1c2c(c(=N)c3c1CCC3)CCC2
number: 57.1
//
compound: CC(C)CCNC(=O)C(c1ccncc1)N(Cc1cccs1)C(=O)Cn1nnc(-c2ccc(F)cc2)n1 (stereo not given)
number: 46.3

We next turn to a different compound, shown below.
Query: // Input: `CCc1nc(Nc2ccncc2)c2oc3ccccc3c2n1` . Output its inhibition only.
Reply: 12.3

---

- test.details: VP16 transactivation inhibitors, counter-screen for SRC1 inhibitor project, cell-based, luminescence, high throughput (AID 588824)
- particulars: cell-based VP16 transactivation luciferase luminescence; at 3.6 µM
Calls of active or inactive are those of the source. Rule as the data show it: active = inhibition above about 25%; inactive = the rest.
Hello, when you answer, please use one of the following outcomes: y (active), n (inactive)

These recorded examples may help you get a feel for the data.
molecule: Cc1ccc(-n2c(C)nn(CC3CC3)c2=O)cc1
cat: n
--
molecule: CCCCCCCCNc1ncnc2[nH]ncc12
cat: n
--
molecule: Cc1ccc(S(=O)(=O)N2[C@@H](c3ccc(C(C)(C)C)cc3)C(C(=O)O)=CC[C@H]2c2ccc(Cl)cc2)cc1
cat: n
--
molecule: Cc1cc(=O)[nH]c(Nc2cccc(C(F)(F)F)c2)n1
cat: y
--
molecule: Nc1ccc(S(=O)(=O)NNC(=O)C(=O)NNc2ccccc2)cc1
cat: n

Query: Name the outcome recorded for O=C(Nc1ccc(Cl)c([N+](=O)[O-])c1)C(Sc1ccccc1)c1ccccc1 (stereo unspecified) in the assay.
Reply: n

Query: Name the outcome recorded for `Cc1c2ccncc2cc2c1[nH]c1ccccc12` in the assay.
Reply: n

Query: Name the outcome recorded for `COc1ccc2c(c1)c(=Cc1ccc(N(C)C)cc1)c1cc(-c3ccccc3)[n+](C)n12` in the assay.
Reply: y

Query: Name the outcome recorded for `O=C(c1ccccc1Sc1ccccc1[N+](=O)[O-])N1CCCCC1` in the assay.
Reply: n

Query: Name the outcome recorded for `O=C(Nc1sc2c(c1C(=O)NCCCO)CCCC2)c1ccccc1` in the assay.
Reply: n

Query: Name the outcome recorded for `Cc1ccc2nc(C)c3c(c2c1)N(c1ccc(F)cc1)CC3` in the assay.
Reply: y

---

- Tested on: transactivating tegument protein VP16 (Human herpesvirus 1)
- test.details: VP16 transactivation reporter inhibitors, counter-screen for SRC2 inhibitor project, cell-based, luminescence, single concentration (AID 652007)
- particulars: cell-based VP16 transactivation luciferase reporter, at 8.9 µM
Calls of active or inactive are those of the source. No stated cut-off is given here; in the data, active means inhibition above about 36%; inactive means the rest.
Hello, when you answer, please use one of the following outcomes: yes (active), no (inactive)

These recorded examples may help you get a feel for the data.
compound: Nn1c(SCC(=O)Nc2cc(C(F)(F)F)ccc2Cl)nncc1=O
experimental.system: transactivating tegument protein VP16 (Human herpesvirus 1)
cat: no

compound: C=C1C(=O)C23CCC4C(C)(C(=O)OC)CCCC4(C)C2CCC1(O)C3 (stereo not given)
experimental.system: transactivating tegument protein VP16 (Human herpesvirus 1)
cat: yes

compound: Cc1cccc(NS(=O)(=O)c2ccc(C)c(C(=O)NC3CCN(Cc4ccccc4)CC3)c2)c1
experimental.system: transactivating tegument protein VP16 (Human herpesvirus 1)
cat: no

compound: CC(C)(C)C(=O)Nc1nnc(CSCc2ccccc2F)s1
experimental.system: transactivating tegument protein VP16 (Human herpesvirus 1)
cat: no

Query: Name the outcome recorded for `Cc1nc2ccccc2c2c1C(=O)N(c1ccc(C(=O)O)cc1)C2=O` in the assay.
Reply: no
